test: Plasma concentration in Swiss outbred mouse at 30 mg/kg, po at 24 hrs by LC-MS analysis; assay type: ADME, organism-based; parameters: dose 30 mg/kg, route oral
This listing pairs molecules with measured concentration at 24 h.
Recorded metric: concentration at 24 h

- Molecule: "CC(C)(N)CNC(=O)CC1CCC2(CC1)OOC1(OO2)C2CC3CC(C2)CC1C3 (centres undefined)"
  Assay value: "< 1 ng/mL"
- Molecule: "CC(C)(N)CNC(=O)C[C@H]1CC[C@]2(CC1)OO[C@]1(O2)C2CC3CC(C2)CC1C3 [OZ277]"
  Assay value: "< 1 ng/mL"
- Molecule: "c1cc([C@H]2CC[C@]3(CC2)OO[C@]2(O3)C3CC4CC(C3)CC2C4)ccc1OCCN1CCOCC1 [ARTEFENOMEL]"
  Assay value: "> 200 ng/mL"
- Molecule: "CC(C)(N)CNC(=O)CC1CCC2(CC1)COC1(OO2)C2CC3CC(C2)CC1C3 (centres undefined)"
  Assay value: "> 10 ng/mL"
